# PROTOCOL SUMMARY: Caspase-3/7 induction in CHO-K1 cells by small molecules, qHTS cell viability counter screen (AID 1346979); note: nearly all actives have a fitted effect of over 35% in size; note: potency is the fitted concentration of half-maximal effect
# CONDITION SUMMARY: CellTiter-Fluor fluorescence, 17 h; series mostly up to 92.4 µM
Records with an inconclusive call do not appear. Calls of active or inactive are those of the source. Calls come from the whole dose curve; as a rule, active = well fitted cell-killing curve with a large enough effect in the repeat runs; inconclusive = weak or mixed curves, or effect the other way; inactive = no such curve, though single readings can be large or run the other way.
VALUE TYPE: Potency

Examples with answers:
MOLECULE: NC(=O)N1C(=O)C(C(=O)c2cc(Cl)cs2)c2cc(F)c(Cl)cc21 (stereo unspecified)
Potency: 61.1 µM (active)
//
MOLECULE: CCCCCCCCCCCCCCCS(=O)(=O)Oc1ccccc1
Potency: inactive
//
MOLECULE: C=C(C)C(=O)OCC(O)COc1ccc(C(C)(C)c2ccc(OCC(O)COC(=O)C(=C)C)cc2)cc1 (stereo unspecified)
Potency: 54.5 µM (active)
//
MOLECULE: CC(C)(C)CC(C)(C)c1ccc(OCCOCC[N+](C)(C)Cc2ccccc2)cc1
Potency: 61.1 µM (active)
//
MOLECULE: CC(=O)N1CCN(c2ccc(OC[C@H]3CO[C@](Cn4ccnc4)(c4ccc(Cl)cc4Cl)O3)cc2)CC1
Potency: 27.3 µM (active)

# ---- query molecule ----
Inquiry: I have this molecule here, Nc1c(Cl)cc(Cl)cc1Cl , and I need its recorded Potency.
Reply text: inactive

---

# PROTOCOL SUMMARY: qHTS assay for small molecule disruptors of the mitochondrial membrane potential - cell viability (AID 720634); note: nearly all actives have a fitted effect of over 20% in size; note: potency is the fitted concentration of half-maximal effect
# CONDITION SUMMARY: HepG2 viability, ATP luminescence (CellTiter-Glo), 1 h; series mostly up to 83.2 µM
Records with an inconclusive call do not appear. The source made the active and inactive calls. Calls come from the whole dose curve.
VALUE TYPE: Potency

For orientation, consider the following solved cases.
MOLECULE: CO[Si](CCCNc1ccccc1)(OC)OC
DATA VALUE: inactive
//
MOLECULE: Oc1ccc(N=Nc2ccccc2)cc1
DATA VALUE: 6.95 µM (active)
//
MOLECULE: CCCCCCCCOC(=O)c1ccc(O)cc1
DATA VALUE: 24.3 µM (active)
//
MOLECULE: CCCCc1oc2ccc(NS(C)(=O)=O)cc2c1C(=O)c1ccc(OCCCN(CCCC)CCCC)cc1
DATA VALUE: 29.8 µM (active)
//
MOLECULE: CCCCCCCCOc1ccccc1C(=O)Nc1ccc(C(=O)OCC[N+](C)(CC)CC)cc1
DATA VALUE: inactive
//
MOLECULE: CNCc1cc(F)ccc1Oc1ccc(Cl)c(Cl)c1
DATA VALUE: inactive

Inquiry: What value of Potency has been reported for the following molecule? Oc1cc2ccccc2c2ccccc12
Reply text: 19.3 µM (active)

Inquiry: Which Potency is listed for CSc1ccc2c(c1)C(N1CCN(C)CC1)Cc1ccccc1S2 (stereo not given) ?
Reply text: inactive

Inquiry: GET /values?readout=Potency&item= CCCC/C=C/CCCCO
Reply text: inactive

Inquiry: Fill in the blank: the reported Potency of CC1=C(C(=O)OC(C)C)C(c2cccc([N+](=O)[O-])c2)C(C(=O)OC2CN(C(c3ccccc3)c3ccccc3)C2)=C(N)N1 (stereo not given) is ____.
Reply text: 7.5 µM (active)

Inquiry: Consider the molecule shown here: CCCCC(CC)CN=C(N)NC(N)=NCCCCCCN=C(N)NC(N)=NCC(CC)CCCC (stereo not given) What is its recorded Potency?
Reply text: 21.1 µM (active)

---

# PROTOCOL SUMMARY: qHTS assay to identify aromatase inhibitors - cell viability counter screen (AID 743084);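 note: cells stimulated with testosterone during compound exposure; nearly all actives have a fitted effect of over 55% in size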
# CONDITION SUMMARY: MCF-7 aro ERE viability, CellTiter-Fluor, 24 h; series mostly up to 70.3 µM
Inconclusive results are not listed. Active and inactive are the calls of the source. Calls follow the shape of the dose curve; as a rule, active = well fitted cell-killing curve with a large enough effect in the repeat runs; inconclusive = weak or mixed curves, or effect the other way; inactive = no such curve, though single readings can be large or run the other way.
Permitted responses: YES for active, NO for inactive

SMILES DATA: CNCc1cc(F)ccc1Oc1ccc(Cl)c(Cl)c1
ASSIGNED CLASS: NO
//
SMILES DATA: CCN1/C(=C/C=C/c2sc3ccccc3[n+]2CC)Sc2ccccc21
ASSIGNED CLASS: YES
//
SMILES DATA: COc1cccc2c1C(=O)c1c(O)c3c(c(O)c1C2=O)C[C@@](O)(C(=O)CO)C[C@@H]3O[C@H]1C[C@H](N)[C@H](O[C@@H]2CCCCO2)[C@H](C)O1
ASSIGNED CLASS: YES
//
SMILES DATA: CCCCCCCCCCCCCCCS(=O)(=O)Oc1ccccc1
ASSIGNED CLASS: NO
//
SMILES DATA: CN(C/C=C/C#CC(C)(C)C)Cc1cccc2ccccc12
ASSIGNED CLASS: NO
//
SMILES DATA: CCOC(=O)O[C@H](C)OC(=O)c1ccc2c(c1)cc(C(=O)NC1CCN(C(C)C)CC1)n2Cc1cc(-c2ccc(Cl)s2)on1
ASSIGNED CLASS: YES

Inquiry: How did this test come out for Cc1cc(O)c2ccccc2c1O ?
Reply text: NO

Inquiry: Name the outcome recorded for C[C@]12CCC(=O)C=C1CC[C@@H]1[C@@H]2[C@@H](O)C[C@@]2(C)[C@H]1CC[C@]2(O)C(=O)COC(=O)CCC(=O)O in the assay.
Reply text: NO

Inquiry: What classification did Fc1ccc(C(c2ccc(F)cc2)N2CCN(C/C=C/c3ccccc3)CC2)cc1 end up with in this test?
Reply text: NO

Inquiry: Called result for CCN(Cc1cccnc1)C(=O)c1cccc(Cl)c1[C@]1(C)C(=O)N(Cc2ccc(OC)cc2OC)c2ccc(Cl)cc21
Reply text: YES

---

# TARGET SYSTEM: Estrogen receptor (Homo sapiens)
# PROTOCOL SUMMARY: qHTS assay to identify small molecule antagonists of the estrogen receptor alpha (ER-alpha) signaling pathway using the BG1 cell line in the presence of 0.1 nM 17-beta-estradiol (AID 1259244); note: nearly all actives have a fitted effect of over 50% in size; note: potency is the fitted concentration of half-maximal effect
# CONDITION SUMMARY: VM7Luc4E2 (BG1) ERE-luciferase, antagonist mode, 0.1 nM E2, 22 h; series mostly up to 92.4 µM
Inconclusive results are not listed. Active and inactive are the calls of the source. Calls come from the whole dose curve; as a rule, active = well fitted inhibition curve with a large enough effect in the repeat runs; inconclusive = weak or mixed curves; inactive = no such curve, though single readings can be large or run the other way.
VALUE TYPE: Potency

COMPOUND: Cc1cc(C2CCCCC2)n(O)c(=O)c1
DATA VALUE: 6.68 µM (active)
//
COMPOUND: CCCCCCCC[P+](CCCCCCCC)(CCCCCCCC)CCCCCCCC
DATA VALUE: 0.43 µM (active)
//
COMPOUND: N/C(=N\N=C\c1ccc(Cl)cc1)N/N=C/c1ccc(Cl)cc1
DATA VALUE: inactive
//
COMPOUND: NNC(=O)c1cccc(C(=O)NN)c1
DATA VALUE: inactive
//
COMPOUND: O=Cc1cc(O)ccc1Br
DATA VALUE: inactive
//
COMPOUND: CCOC(=O)c1nc(C(Cl)(Cl)Cl)n(-c2ccc(Cl)cc2Cl)n1
DATA VALUE: inactive

Inquiry: Consider the compound CC(C)(C)C(=O)OCOC(=O)[C@@H]1N2C(=O)[C@@H](NC(=O)[C@H](N)c3ccccc3)[C@H]2SC1(C)C and give its measured Potency.
Reply text: inactive

Inquiry: Please report the recorded Potency for COC(=O)c1cc(Cl)ccc1OC .
Reply text: inactive

Inquiry: Fill in the blank: the reported Potency of COc1ccc(C(=O)/C(Br)=C\C(=O)O)cc1 is ____.
Reply text: inactive

Inquiry: Potency lookup needed for OCCN1CCN(CC/C=C2/c3ccccc3Sc3ccc(C(F)(F)F)cc32)CC1 , thanks.
Reply text: inactive

Inquiry: Which Potency value is on record for O=C1c2c(O)ccc(Nc3ccc(CCO)cc3)c2C(=O)c2c([N+](=O)[O-])ccc(O)c21 ?
Reply text: inactive

Inquiry: Requested read-out: Potency. Entry: O=C1CCCCCN1SSN1CCCCCC1=O
Reply text: inactive

Inquiry: Field request: Potency | item: Cc1cc2c(cc1C(F)(F)F)N(C(=O)Nc1ccc(Oc3cccnc3C)nc1)CC2
Reply text: 31.1 µM (active)

Inquiry: Could you share which Potency value was measured for Cc1cccc(CN2CCN(C(c3ccccc3)c3ccc(Cl)cc3)CC2)c1 (stereo unspecified) ?
Reply text: inactive

Inquiry: Need Potency, item CCCCC(CC)CN=C(N)NC(N)=NCCCCCCN=C(N)NC(N)=NCC(CC)CCCC (stereo unspecified)
Reply text: 21.1 µM (active)

Inquiry: So what's the measured Potency for this one? C=CC(=O)OCC(CO)(COC(=O)C=C)COC(=O)C=C
Reply text: 13.7 µM (active)

Inquiry: Returns the measured Potency for the input compound. Input: Cc1nc(-c2ccc3c(c2)CCN(CCC2CCC(NC(=O)/C=C/c4ccc(F)cc4)CC2)CC3)no1 (stereo unspecified)
Reply text: inactive

Inquiry: Looking for the measured Potency of Clc1ccc2nsnc2c1NC1=NCCN1 , can you help?
Reply text: inactive

Inquiry: Form field: reported Potency of CC(C)(C)C1CCC(CC2=C(O)c3ccccc3C(=O)C2=O)CC1 (stereo unspecified)
Reply text: 21.1 µM (active)

Inquiry: So what's the measured Potency for this one? CCC(C)(C)C1CCCCC1OC(C)=O (stereo unspecified)
Reply text: inactive

Inquiry: Which value of Potency has been reported for O=C(O)c1cc(O)c2c(c1)C(=O)c1cccc(O)c1C2=O in the records?
Reply text: inactive

Inquiry: // Potency lookup, key: O=C(c1ccc(O)cc1O)c1ccc(O)cc1O
Reply text: inactive

Inquiry: What value of Potency has been reported for the following compound? Cc1cc(O)c(Cl)c(C)c1Cl
Reply text: inactive

Inquiry: Can you look up the measured Potency of CCCCCCCCOC(=O)c1ccc(O)cc1 for me?
Reply text: inactive
